# measured.target: T1, HLA-B35 (B*3501) (human)
# T1 construct: HLA class I on acid-stripped EBV-transformed B cells (B-LCL)
# experiment.notes: competition vs NPDIVC(FI)YQY on stripped B-LCL, FACS
Listed here are binders together with their documented IC50.
Provide only the numeric value, understood in nM.

Solved entries:
binder | IC50 (nM)
LPTLAKFSPY [PRAME 246-255 LPTLAKFSPY] | 110
GACDELFSY [PRAME 186-194 GACDELFSY] | 2600
SPYLGQMINL [PRAME 253-262 SPYLGQMINL] | 1980

Please find the next binder below.
Inquiry: Reported IC50, binder LPRELFPPLF [PRAME 48-57 LPRELFPPLF] : ____
Reply text: 1580
